# Tested on: MDA-N
# Assay Procedure: NCI tumour cell line growth inhibition, 48 h
The source made the active and inactive calls. No stated cut-off is given here; in the data, active = GI50 up to about 1.1 µM and inactive = higher.
Possible outcomes: 1 (yes) = active, 0 (no) = inactive

[
  {
    "Compound": "CC1(C)CC(=O)c2c([nH]c(=S)c(C#N)c2-c2ccc(Br)cc2)C1",
    "Class": "0 (no)"
  },
  {
    "Compound": "O=C1CCC[C@]2(CCC[C@@H](O)C2)N1",
    "Class": "0 (no)"
  },
  {
    "Compound": "Nc1nccc(NCC2(CO)CC(OCc3ccccc3)C2)n1 (stereo not given)",
    "Class": "0 (no)"
  },
  {
    "Compound": "COc1ccc(/C=C\\c2cc(OC)c(OC)c(OC)c2)cc1OC(=O)NCCN(C)C",
    "Class": "1 (yes)"
  },
  {
    "Compound": "NC(Cc1ccc(S(=O)(=O)O)cc1)C(=O)NC(Cc1ccc(S(=O)(=O)O)cc1)C(=O)NC(Cc1ccc(S(=O)(=O)O)cc1)C(=O)NC(Cc1ccc(S(=O)(=O)O)cc1)C(=O)O (stereo not given)",
    "Class": "0 (no)"
  }
]

###

Property: GI50; scope: individual molecules
# System: Malme-3M
# Assay Procedure: NCI tumour cell line growth inhibition, 48 h
The source made the active and inactive calls. Cut-off read from the data, not from the text of the source: active = GI50 up to about 1.1 µM and inactive = higher.

[
  {
    "Smiles Notation": "O=C(CO)CC(=O)C(=O)Nc1ccccc1",
    "GI50": "> 100 µM (inactive)"
  },
  {
    "Smiles Notation": "O=C1OC(=O)c2cc(S(=O)(=O)c3ccc4c(c3)C(=O)OC4=O)ccc21",
    "GI50": "24.1 µM (inactive)"
  },
  {
    "Smiles Notation": "Fc1cc(C2=C[C@H](c3ccc(Cl)cc3)NC(=S)N2)c(Cl)cc1Cl",
    "GI50": "> 100 µM (inactive)"
  },
  {
    "Smiles Notation": "Cc1ccc(C(=O)/C=C2\\Nc3cccnc3NC2=O)cc1",
    "GI50": "95.9 µM (inactive)"
  }
]

###

# Test system: CAKI-1
# Assay Procedure: NCI tumour cell line growth inhibition, 48 h
The source made the active and inactive calls. No stated cut-off is given here; in the data, active = GI50 up to about 1.1 µM and inactive = higher.

[
  {
    "Smiles Notation": "CCCN(C(=O)c1c(Cl)nnc(Cl)c1C(=O)c1cc(Cl)nnc1Cl)c1cc(Cl)nnc1Cl",
    "GI50": "7.23 µM (inactive)"
  },
  {
    "Smiles Notation": "Cc1occc1C(=S)Nc1ccc(Cl)c(C(=O)OCC(C)C)c1",
    "GI50": "21.5 µM (inactive)"
  },
  {
    "Smiles Notation": "O=C(N/N=C(COc1ccccc1)\\N=C\\c1ccncc1)c1ccncc1",
    "GI50": "> 100 µM (inactive)"
  },
  {
    "Smiles Notation": "Cc1ccc(C(=O)/C=C2\\Nc3cccnc3NC2=O)cc1",
    "GI50": "> 100 µM (inactive)"
  }
]

###

# Tested on: ACHN
# Assay Procedure: NCI tumour cell line growth inhibition, 48 h
Active and inactive are the calls of the source. Rule as the data show it: active = GI50 up to about 1.1 µM and inactive = higher.
Recorded GI50 for the following compounds

[
  {
    "Compound": "Cc1c(O)c(=O)ccn1CCc1ccc(O)cc1",
    "GI50": "13.9 µM (inactive)"
  },
  {
    "Compound": "COC1=CC(=O)c2c(O)c3c(c(O)c2C1=O)C=C(C)OC3O (configuration not stated)",
    "GI50": "2.1 µM (inactive)"
  },
  {
    "Compound": "Cc1ccc2c(c1)C(=O)/C(=C\\c1ccc(Cl)cc1)CCS2(=O)=O",
    "GI50": "1.95 µM (inactive)"
  },
  {
    "Compound": "NC(=O)c1c2c(n3ccccc13)C(=O)c1ccccc1C2=O",
    "GI50": "> 100 µM (inactive)"
  },
  {
    "Compound": "COc1ccc2c(c1)[n+]([O-])c(C(=O)C/C(=N/OCCCc1ccccc1)C(=O)NC13CC4CC(CC(C4)C1)C3)c(C)[n+]2[O-]",
    "GI50": "> 100 µM (inactive)"
  },
  {
    "Compound": "COc1ccc(/C=C/CO)cc1OC",
    "GI50": "> 100 µM (inactive)"
  },
  {
    "Compound": "N=C(N)/N=C(/C=C/c1ccccc1)CC1OC(=O)c2ccccc21 (configuration not stated)",
    "GI50": "> 100 µM (inactive)"
  }
]

Ref: ChEMBL document CHEMBL1201862
